# Test system: LXFL 529
# assay.name: NCI tumour cell line growth inhibition, 48 h
Activity calls are given as the source filed them. No stated cut-off is given here; in the data, active = GI50 up to about 1.1 µM and inactive = higher.
Labels: label 1 = active, label 0 = inactive

{"columns": ["compound", "qualitative.label"],
 "data": [
  ["CCN1C(=O)N(C)C(O)c2c1nc1ccccn1c2=O (centres undefined)", "label 0"],
  ["N#CC(NNC(=O)c1ccccc1O)c1c(O)ccc2ccccc12 (centres undefined)", "label 0"],
  ["CC(=O)OCCOCn1c2ccccc2c2c3c(c4c5ccccc5n(COCCOC(C)=O)c4c21)C(=O)N(Cc1ccccc1)C3=O", "label 0"],
  ["NC(=O)NCc1c(C(N)=O)ncn1Cc1ccccc1", "label 0"],
  ["O=C1c2c(c3c4ccccc4n4c3c3c2c2ccccc2n3C/C=C\\C4)C(=O)N1Cc1ccccc1", "label 0"],
  ["Cn1cccc1/C=C/c1cc(Br)c(/C=C/c2cccn2C)cc1Br", "label 0"],
  ["O=C1CCC(c2ccccc2)=NN1c1nc2ccccc2s1", "label 0"],
  ["O=C1CC(c2c(-c3ccccc3)[nH]c3ccccc23)C(=O)N1c1ccccc1 (centres undefined)", "label 0"],
  ["NNC(=S)N/N=C/C(Cl)=C(\\Cl)C(=O)O", "label 0"],
  ["Cc1cccc2cc3cccc(C(=O)NCCN(C)C)c3nc12", "label 1"],
  ["CCO[C@@H]1OC(=O)[C@](C)(C(C)=O)[C@@H]1C", "label 0"],
  ["Cc1cccc(NC(=O)C(=O)C(C2OC(=O)c3ccccc32)[N+](=O)[O-])c1C (centres undefined)", "label 0"],
  ["CC(=O)Nc1ccc(C2=N/C(=C\\c3ccc(Cl)cc3)C(=O)O2)cc1", "label 0"],
  ["O=C1OC(Cl)C(N=P(c2ccccc2)(c2ccccc2)c2ccccc2)=C1Cl (centres undefined)", "label 0"],
  ["CCCn1c(SCC)c2ccccc2c1-c1nc(F)nc(F)n1", "label 0"],
  ["N/C(=N\\O)N/N=C/c1cccc(F)c1", "label 0"],
  ["COC1CCC2C(=O)CCCC2O1 (centres undefined)", "label 0"],
  ["CN(C)CCC(=O)c1ccccc1", "label 0"],
  ["CCc1cccc(C)c1NC(=S)NC(=O)c1ccccc1C(=O)NC(=S)Nc1c(C)cccc1CC", "label 0"]
]}

----------
# Tested on: UO-31
# assay.name: NCI tumour cell line growth inhibition, 48 h
Activity calls are given as the source filed them. Rule as the data show it: active = GI50 up to about 1.1 µM and inactive = higher.
Outcomes: YES (active), NO (inactive)

{"columns": ["compound", "qualitative.label"],
 "data": [
  ["COc1ccc(S(=O)(=O)Nc2ccccc2C(=O)O)cc1", "NO"],
  ["Cc1cc2c3c(c1)CCCN3CCC2", "NO"],
  ["COC(=O)/C=C\\S/C(=C(/c1ccccc1)n1ccc(C(=O)OC)n1)c1ccccc1", "NO"],
  ["CCOC(=O)Nc1c(C#N)[n+]([O-])c2cc(Cl)c(Cl)cc2[n+]1[O-]", "NO"],
  ["CC(NC(=O)c1ccccc1)C(=O)N(Cc1ccccc1)Cc1ccccc1 (configuration not stated)", "NO"],
  ["CN(Cc1nc2c(N)nc(N)nc2nc1N)c1ccc(C(=O)NC(CCC(=O)O)C(=O)O)cc1 (configuration not stated)", "YES"],
  ["Cc1cc(C)c(-n2[nH]c(=O)n(C)c2=O)c(C)c1", "NO"],
  ["CCOc1ccc(C2c3[nH]c4ccccc4c3CCN2C(=O)c2cccs2)cc1 (configuration not stated)", "NO"],
  ["CCCCCCCCOC(=O)c1cc([N+](=O)[O-])c(Sc2[nH]cnc3ncnc2-3)c([N+](=O)[O-])c1", "NO"],
  ["O=c1c2ccccc2c(=O)n2n1CC=CC2", "NO"],
  ["O=C1CC2CC3OC3[C@H]3c4cc5c(cc4C(=O)N1C23)OCO5 (some centres not stated)", "NO"],
  ["O=C(NCc1cccs1)OC1CC2CCC1C2 (configuration not stated)", "NO"],
  ["CCOC(=N)CC(=O)Nc1ccccc1", "NO"],
  ["CC(=O)OCCOCn1c2ccccc2c2c3c(c4c5ccccc5n(COCCOC(C)=O)c4c21)C(=O)N(Cc1ccccc1)C3=O", "NO"],
  ["CC(CCN)(CCN)[N+](=O)[O-]", "NO"],
  ["O=C(O)C1=C(O)C(C(=O)O)C23CCCCCCCCCCC12C(C(=O)O)C(O)=C3C(=O)O (configuration not stated)", "NO"],
  ["CCN(CC)/C(Sc1ccccc1)=C(\\C(Cl)=C(Cl)Cl)[N+](=O)[O-]", "NO"],
  ["c1ccc(SCCP(CCP(c2ccccc2)c2ccccc2)c2ccccc2)cc1 (configuration not stated)", "NO"],
  ["COc1ccc(N2C(=O)C3c4[nH]c5ccc(F)cc5c4C4CCC(C(C)(C)C)CC4C3C2=O)cc1 (configuration not stated)", "NO"],
  ["O=C(Oc1cccnc1)c1cc2cc(CCl)ccc2oc1=O", "NO"],
  ["COc1c(OC)c(OC)c2c(c1OC)c(=O)c1ccccc1n2C [MELICOPICINE]", "NO"],
  ["CC(CS(=O)(=O)Cc1ccccc1)C(N)=O (configuration not stated)", "NO"],
  ["N#CCc1c(-c2ccccc2)n(S(=O)(=O)c2ccccc2)c2ccccc12", "NO"],
  ["CC(=O)OC1CC2CC(=O)CC1N2C (configuration not stated)", "NO"],
  ["[N-]=[N+]=NC1(Cc2ccccc2)C(=O)c2cccc3c2N(CCC3)C1=O (configuration not stated)", "NO"],
  ["NC1=C(N2CCCCC2)C(=O)NC2=N/C(=C\\c3ccccc3)C(=O)N21", "NO"],
  ["CC1CCC2CC1NC(=O)CCOCCC(=O)NC2(C)C (configuration not stated)", "NO"],
  ["Cc1cc(Br)cc(C)c1NC(=O)C(=O)CC(=O)c1sc(-n2nc(-c3ccccc3)cc2-c2ccccc2)nc1C", "NO"],
  ["O=C(N/N=C/C=C/c1ccc([N+](=O)[O-])o1)c1ccc(C(=O)N/N=C/C=C/c2ccc([N+](=O)[O-])o2)cc1", "NO"],
  ["COc1ccc(N[C@H](C[S+]([O-])c2ccc(C)cc2)C(F)(F)C(F)(F)F)cc1 (some centres not stated)", "NO"],
  ["O=C(/C=C1\\Nc2ncccc2N=C1CC(=O)c1ccccc1)c1ccccc1", "NO"],
  ["O=C(O)c1ccccc1/N=N/c1c(O)c(S(=O)(=O)O)cc2cc(S(=O)(=O)O)ccc12", "NO"]
]}

----------
# System: RXF 393
# assay.name: NCI tumour cell line growth inhibition, 48 h
The source made the active and inactive calls. No stated cut-off is given here; in the data, active = GI50 up to about 1.1 µM and inactive = higher.
Reported GI50 values for a set of compounds

{"columns": ["compound", "experimental.system", "GI50"],
 "data": [
  ["CCCCCCCCCCCCCCCCCCN(C)CC(COP(=O)([O-])OCC[N+](C)(C)C)OC (stereo not drawn)", "RXF 393", "3.4 µM (inactive)"],
  ["CC(=O)OC1CC2CCC1(C)C2(C)C (stereo not drawn)", "RXF 393", "> 100 µM (inactive)"],
  ["Cn1c(=O)c(C(c2ccccc2)c2c(O)c3ccccc3n(C)c2=O)c(O)c2ccccc21", "RXF 393", "> 100 µM (inactive)"],
  ["CC(=O)c1cccc(Nc2nc3ccccc3c3occc23)c1", "RXF 393", "10.8 µM (inactive)"],
  ["CCOC(=O)C1(C#N)OC(=O)c2cnccc21 (stereo not drawn)", "RXF 393", "> 100 µM (inactive)"],
  ["Cc1cccc(C(C)(C)C)c1NC(=O)CCl", "RXF 393", "> 100 µM (inactive)"],
  ["COc1c(OC)c(OC)c2c(=O)c(OC)c(-c3ccc4c(c3)OCO4)oc2c1OC", "RXF 393", "> 100 µM (inactive)"],
  ["CCOC(=O)C1=C(C)NC(=S)NC1c1cccc(O)c1 (stereo not drawn)", "RXF 393", "25.5 µM (inactive)"]
]}

----------
# Test system: SW-620
# assay.name: NCI tumour cell line growth inhibition, 48 h
Counter-ions that a name gives are not always drawn. Activity calls are given as the source filed them. Cut-off read from the data, not from the text of the source: active = GI50 up to about 1.1 µM and inactive = higher.
Outcomes: active, inactive

{"columns": ["molecule", "qualitative.label"],
 "data": [
  ["CC(C)C[C@H]1[C@@H](OCc2ccccc2)COS(=O)N1[C@H](C)c1ccccc1 (stereo not given in full)", "inactive"],
  ["CNC1=Nc2ccccc2C(=S)N2CSC[C@@H]12", "inactive"],
  ["COc1cc(C2CC(C)(O)Oc3cc4c(cc32)OCO4)cc(OC)c1OC (stereo not given)", "active"],
  ["O=C(O)C[C@H]1CCCCC12CCOC2=O (stereo not given in full)", "inactive"],
  ["CC(=O)O[C@@H]1[C@H](OC2CCCCC2(c2ccccc2)c2ccccc2)O[N+]([O-])=CC12CCCCC2 (stereo not given in full)", "inactive"],
  ["COc1ccccc1NC(=O)C(=O)C(C#N)CC(C)(C)C=O (stereo not given)", "inactive"],
  ["CC1=C2C(=O)OCC23C=COC3(C)O1 (stereo not given)", "inactive"],
  ["CSC(=S)N(C)NC(=O)c1cccc(C(=O)NN(C)C(=S)SC)n1", "inactive"],
  ["Fc1ccc(OCc2nc3cc(C(F)(F)F)ccc3nc2-c2ccccc2)cc1", "inactive"],
  ["C#CCn1c(=O)c2ccccc2n(CC#C)c1=O", "inactive"],
  ["O=c1c2cc([N+](=O)[O-])cnc2sn1-c1ccc([N+](=O)[O-])cc1", "inactive"],
  ["CO/N=C(/C)c1cccc(Nc2nc3ccccc3c3[nH]c4ccccc4c23)c1", "inactive"],
  ["CCCCc1oc2ccccc2c1C(=O)c1cc(I)c(OCCN(CC)CC)c(I)c1 [AMIODARONE HYDROCHLORIDE]", "inactive"],
  ["O=[N+]([O-])c1ccc(S(=O)(=O)N=Ic2ccccc2)cc1", "inactive"],
  ["O=C(Nc1ccc(Cl)cc1Cl)C1C(=O)OC2(CCCCC2)OC1=O", "inactive"],
  ["C[n+]1cc2cc(O)c(O)cc2c2ccc3cc(O)c(O)cc3c21.c1ccncc1", "inactive"],
  ["COc1c(-c2nc3ccc(N4CCN(C)CC4)cc3[nH]2)cc(OC)c2[nH]c(COC(C)=O)nc12", "inactive"],
  ["N#CC(NNC(=O)c1ccccc1O)c1c(O)ccc2ccccc12 (stereo not given)", "inactive"],
  ["COC(=O)c1ccccc1C1CN=NC12Cc1cc3c(cc1C2=O)CCC3 (stereo not given)", "inactive"],
  ["Cc1cc2[nH]c3c(C#N)c(-c4ccccc4)c(/N=N/c4cccc(C(F)(F)F)c4)c(=O)n3c2cc1C", "inactive"],
  ["OC(c1ccc(-c2ccccc2)cc1)C(F)(F)c1nc2ccccc2o1 (stereo not given)", "inactive"],
  ["C/C(=N\\NC(=S)N1CCN(c2ccccn2)CC1)c1nccs1", "active"],
  ["COc1c(OC)c(OC)c2c(=O)c(OC)c(-c3ccc4c(c3)OCO4)oc2c1OC", "inactive"],
  ["NC1=C(N2CCCCC2)C(=O)NC2=N/C(=C\\c3ccccc3)C(=O)N21", "inactive"],
  ["Cc1ccc(/C=C/C(=O)C(C)C)cc1", "inactive"],
  ["COc1c(O)c(OC)c2oc(-c3ccc(O)c(O)c3)c(OC)c(=O)c2c1O", "inactive"],
  ["CCOC(=O)/C(C#N)=C(O)/C(=C/c1ccccc1Cl)NC(=O)c1ccccc1", "inactive"],
  ["Cc1cc(C)c(-n2[nH]c(=O)n(C)c2=O)c(C)c1", "inactive"],
  ["Nc1nc(Nc2ccccc2)sc1C(=O)c1ccco1", "inactive"],
  ["CCOC(=O)c1cc(C(=O)O)c(=O)n2c1[nH]c1ccccc12", "inactive"],
  ["O=Cc1ccc(OC[C@H]2COC(=O)N2)cc1", "inactive"],
  ["Cc1ccc(S(=O)(=O)/N=C(\\NN)Nc2ccc(Cl)cc2)cc1", "inactive"],
  ["O=C1/C(=C/c2ccc(O)cc2)CCC1CNc1ccc(Cl)cc1 (stereo not given)", "inactive"],
  ["O=C(Oc1cccnc1)c1cc2cc(CCl)ccc2oc1=O", "inactive"],
  ["COC(=O)CC1CC2(C(=O)OC)c3[nH]c4ccccc4c3CCN2C1=O (stereo not given)", "inactive"]
]}
